System: Huh-7
methodSummary: Cytotoxicity against human Huh-7 cells assessed as reduction in cell viability incubated for 72 hrs by CellTiter-Glo luminescent assay
Format: functional, cell-based
runConditions: Huh-7, 72 h
assayMetric: IC50 (µM)

smiles | recordedMeasurement
S=C(Nc1ccc2nc(-c3ccco3)c(-c3ccco3)nc2c1)N1CCCCCC1 | 25.3
